# MEASUREMENT TARGET: L-fucose dehydrogenase (L-FDH) (Pseudomonas sp)
# Construct: L-FDH was accumulated in the cell portion; made in house; host or cells: Pseudomonas sp; No. 1143 (FERM BP-2056), the natural producing strain isolated from soil; enzyme purified from its cells, not recombinant
# Sequence (Q52472 whole entry): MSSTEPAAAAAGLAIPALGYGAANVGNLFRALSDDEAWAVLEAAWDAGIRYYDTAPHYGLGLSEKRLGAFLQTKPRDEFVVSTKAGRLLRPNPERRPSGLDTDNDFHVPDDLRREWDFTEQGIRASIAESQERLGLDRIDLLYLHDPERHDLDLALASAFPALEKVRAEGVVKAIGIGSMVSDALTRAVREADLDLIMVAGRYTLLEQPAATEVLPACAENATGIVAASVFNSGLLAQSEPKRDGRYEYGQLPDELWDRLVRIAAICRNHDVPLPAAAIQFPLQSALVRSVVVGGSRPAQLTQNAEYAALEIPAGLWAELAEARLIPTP
# Format: biochemical
# TEST PARAMETERS: inhibitor or metal salt 2 mM in reaction solution; None = 100
# Experimental: To 2.5 ml of Tris-imidazole-sodium acetate buffer solution (solution containing 0.12 M each is adjusted to pH of 9.5 with 4 N NaOH) is added 0.2 ml of 15 mM NADP^+ solution After keeping at 37° C. for 5 minutes, 0.1 ml of an enzyme solution is added and 0.2 ml of 150 mM L-fucose solution is further added to the system to initiate the reaction. […]
Give Residual Activity (%) for every item shown.
Give bare numbers, in %.

Could I get Residual Activity (%) for every one of these entries?
1. O=S(=O)([O-])[O-].[Cd+2] [CdSO4]
2. NC(=O)CI [Iodoacetamide]
3. O=C(O)c1cc[c]([Hg][Cl])cc1 [PCMB]
4. O=S(=O)([O-])[O-].[Zn+2] [ZnSO4]

[2, 91, 18, 81]

// Residual Activity (%) lookup, molecule = [Cl][Hg][Cl] [HgCl2] , result: 2

Taken from patent US5260197A.
